organism: Rattus norvegicus; assay: Inhibition of 5-LOX-mediated LTB4 production in arachidonic acid-stimulated RBL1 cells at 10 uM preincubated for 2 hrs followed by A23187 induction for 15 mins by LC/MS/MS analysis relative to control
observable: inhibition (%)

Fc1ccc(F)c(-c2c(Cl)ncn2-c2ccc(Cl)cc2)c1F | 69

(1) Fc1cc(F)c(-c2cnc(Cl)n2-c2ccc(Cl)cc2)c(F)c1
(2) Cc1nc(Cl)n(-c2ccc(Cl)cc2)c1-c1c(F)cccc1F
(3) Fc1ccc(F)c(-c2cnc(Cl)n2-c2ccc(Cl)cc2)c1F
rank_up(items): orders items by reported inhibition in ascending numerical order. Response field: labels, in requested order.
3, 2, 1
(3: 24%, 2: 42%, 1: 61%)

---

test: Ratio of drug level in brain to plasma in mouse at 2 mg/kg, ip administered as cassette dosing; type: ADME, organism-based; settings: read-out: BPR
observable: Kp

Worked set:
Fc1cccc(F)c1-c1c(Cl)ncn1-c1ccc(Cl)cc1 | 1.9
Cc1ncn(-c2ccc(Cl)cc2)c1-c1c(F)ccc(F)c1F | 1.9
Fc1ccc(F)c(-c2cnc(Cl)n2-c2ccc(Cl)cc2)c1 | 3.3

(1) Clc1ccc(-n2cnc(Cl)c2-c2ccccc2)cc1
(2) COc1ccc(-n2c(-c3c(F)cc(F)cc3F)cnc2Cl)cc1
Of 1 and 2 , which one carries the higher reported Kp? Give the chosen item's label as your response.
1

---

organism: Rattus norvegicus; assay: Inhibition of 5-LOX-mediated LTB4 production in arachidonic acid-stimulated RBL1 cells at 10 uM preincubated for 2 hrs followed by A23187 induction for 15 mins by LC/MS/MS analysis relative to control
observable: inhibition (%)

COc1ccc(-n2cnc(Cl)c2-c2c(F)cc(F)cc2F)cc1 | 86
Cc1nc(C)n(-c2ccc(Cl)cc2)c1-c1c(F)cccc1F | 40

(P) Fc1ccc(F)c(-c2c(Cl)ncn2-c2ccc(OC(F)(F)F)cc2)c1F
(Q) Fc1ccc(F)c(-c2c(Cl)nc(Cl)n2-c2ccc(OC(F)(F)F)cc2)c1F
Would you kindly point out which of P and Q has the smaller inhibition figure? Give the chosen item's label as your response.
Q

(P) COc1ccc(F)c(-c2cncn2-c2ccc(Cl)cc2)c1F
(Q) Cc1nc(C)n(-c2ccc(Cl)cc2)c1-c1c(F)ccc(Cl)c1F
Would you kindly point out which of P and Q has the smaller inhibition figure? Give the chosen item's label as your response.
Q

(P) CCc1nc(Cl)c(-c2c(F)cccc2F)n1-c1ccc(Cl)cc1
(Q) Fc1cccc(F)c1-c1cnc(Cl)n1-c1ccccc1Cl
Would you kindly point out which of P and Q has the smaller inhibition figure? Give the chosen item's label as your response.
Q

---

assay: Change in total alpha-tubulin levels in human QBI293 cells at 1 uM after 4 hrs by ELISA relative to control; settings: qbi293, 4 h
observable: FC

Worked set:
COc1cc(F)c(-c2c(Cl)nc(Cl)n2-c2ccc(Cl)cc2)c(F)c1 | 0.3
Cc1ccc(F)c(-c2cnc(Cl)n2-c2ccc(Cl)cc2)c1F | 0.9
Clc1ccc(-n2c(-c3ccccc3)cnc2Cl)cc1 | 1.2

(a) COc1cc(F)c(-c2c(Cl)nc(C)n2-c2ccc(Cl)cc2)c(F)c1
(b) COc1ccc(F)c(-c2cnc(Cl)n2-c2ccc(Cl)cc2)c1F
(c) Fc1ccc(F)c(-c2cncn2-c2ccc(OC(F)(F)F)cc2)c1F
rank_up(items): orders items by reported FC in ascending numerical order. Response field: labels, in requested order.
a, b, c

---

organism: Rattus norvegicus; assay: Inhibition of 5-LOX-mediated LTB4 production in arachidonic acid-stimulated RBL1 cells at 10 uM preincubated for 2 hrs followed by A23187 induction for 15 mins by LC/MS/MS analysis relative to control
observable: inhibition (%)

Fc1ccc(F)c(-c2c(Cl)ncn2-c2ccc(Cl)cc2)c1 | 69
Cc1ccc(F)c(-c2cnc(Cl)n2-c2ccc(Cl)cc2)c1F | 69
Clc1ccc(-n2cnc(Cl)c2-c2ccccc2)cc1 | 71

---

species: Rattus norvegicus; assay: Inhibition of 5-LOX-mediated LTB4 production in arachidonic acid-stimulated RBL1 cells at 10 uM preincubated for 2 hrs followed by A23187 induction for 15 mins by LC/MS/MS analysis relative to control
observable: inhibition (%)

(A) Fc1cc(F)c(-c2c(Cl)nc(Cl)n2-c2ccc(Cl)cc2)c(F)c1
(B) Cc1cc(F)c(-c2cnc(Cl)n2-c2ccc(Cl)cc2)c(F)c1
Of A and B , which one carries the higher reported inhibition? Give the chosen item's label as your response.
B

(1) Fc1ccc(Cl)c(F)c1-c1c(Cl)ncn1-c1ccc(Cl)cc1
(2) Fc1cccc(F)c1-c1cnc(Cl)n1-c1ccc(Cl)cc1
Would you kindly point out which of 1 and 2 has the smaller inhibition figure? Give the chosen item's label as your response.
1
(1: 63%, 2: 92%)

---

organism: Rattus norvegicus; assay: Inhibition of 5-LOX-mediated LTB4 production in arachidonic acid-stimulated RBL1 cells at 10 uM preincubated for 2 hrs followed by A23187 induction for 15 mins by LC/MS/MS analysis relative to control
observable: inhibition (%)

Fc1ccc(-c2cnc(Cl)n2-c2ccc(Cl)cc2)cc1 | 57
Cc1nc(Cl)c(-c2c(F)cc(F)cc2F)n1-c1ccc(Cl)nc1 | 26
Fc1cccc(F)c1-c1c(Cl)ncn1-c1ccccc1Cl | 56

(A) COc1ccc(F)c(-c2cnc(Cl)n2-c2ccc(Cl)cc2)c1F
(B) COc1ccc(-n2cncc2-c2c(F)cc(F)cc2F)cc1
Would you kindly point out which of A and B has the smaller inhibition figure? Give the chosen item's label as your response.
B

---

species: Rattus norvegicus; test: Inhibition of 5-LOX-mediated LTB4 production in arachidonic acid-stimulated RBL1 cells at 10 uM preincubated for 2 hrs followed by A23187 induction for 15 mins by LC/MS/MS analysis relative to control
observable: inhibition (%)

Cc1nc(Cl)n(-c2ccc(Cl)cc2)c1-c1c(F)ccc(F)c1F | 58
Fc1cc(F)c(-c2c(Cl)ncn2-c2ccc(Cl)cc2)c(F)c1 | 46

---

species: Rattus norvegicus; experiment: Inhibition of 5-LOX-mediated LTB4 production in arachidonic acid-stimulated RBL1 cells at 10 uM preincubated for 2 hrs followed by A23187 induction for 15 mins by LC/MS/MS analysis relative to control
# key: entry, value: inhibition

Query: inhibition; subject: `COc1ccc(-c2cncn2-c2ccc(Cl)cc2)cc1`
< 10%

Query: inhibition; subject: `Clc1ccc(-n2c(Cl)nc(Cl)c2-c2ccccc2)cc1`
< 10%

Query: inhibition; subject: `COc1ccc(-c2c(Cl)ncn2-c2ccc(Cl)cc2)cc1`
< 10%
